Kindly state MIC (μg/mL) S. aureus for each of the entries shown.
System: S. aureus
experiment notes: MIC assay, S. aureus
Format: cell-based
Numbers only, in µg/mL.

| smiles representation | unit annotation | data value |
| --- | --- | --- |
| CO[C@H]1/C=C/O[C@@]2(C)Oc3c(C)c(O)c4c(=O)c(c5oc6cc(N7CCC(N)CC7)cc(O)c6nc-5c4c3C2=O)NC(=O)/C(C)=C\C=C\[C@H](C)[C@H](O)[C@@H](C)[C@@H](O)[C@@H](C)[C@H](O)[C@@H]1C | µg/mL | 0.03 |

Look up MIC (μg/mL) S. aureus for the entries below, preserving their order.
1. CO[C@H]1/C=C/O[C@@]2(C)Oc3c(C)c(O)c4c(=O)c(c5oc6cc(N7C[C@H]8CCCN(C(C)=O)[C@H]8C7)cc(O)c6nc-5c4c3C2=O)NC(=O)/C(C)=C\C=C\[C@H](C)[C@H](O)[C@@H](C)[C@@H](O)[C@@H](C)[C@H](O)[C@@H]1C
2. CO[C@H]1/C=C/O[C@@]2(C)Oc3c(C)c(O)c4c(=O)c(c5oc6cc(N7CCC(NC(=O)N8CCN(C)CC8)CC7)cc(O)c6nc-5c4c3C2=O)NC(=O)/C(C)=C\C=C\[C@H](C)[C@H](O)[C@@H](C)[C@@H](O)[C@@H](C)[C@H](OC(C)=O)[C@@H]1C
3. CO[C@H]1/C=C/O[C@@]2(C)Oc3c(C)c(O)c4c(=O)c(c5oc6cc(N7CCC(c8ccccc8)CC7)cc(O)c6nc-5c4c3C2=O)NC(=O)/C(C)=C\C=C\[C@H](C)[C@H](O)[C@@H](C)[C@@H](O)[C@@H](C)[C@H](OC(C)=O)[C@@H]1C
4. CO[C@H]1/C=C/O[C@@]2(C)Oc3c(C)c(O)c4c(=O)c(c5oc6cc(N7CCC(C)(N(C)C)CC7)cc(O)c6nc-5c4c3C2=O)NC(=O)/C(C)=C\C=C\[C@H](C)[C@H](O)[C@@H](C)[C@@H](O)[C@@H](C)[C@H](OC(C)=O)[C@@H]1C
5. CO[C@H]1/C=C/O[C@@]2(C)Oc3c(C)c(O)c4c(=O)c(c5oc6cc(N7CCC(NC(=O)N8CCC(NC(=O)SC)CC8)CC7)cc(O)c6nc-5c4c3C2=O)NC(=O)/C(C)=C\C=C\[C@H](C)[C@H](O)[C@@H](C)[C@@H](O)[C@@H](C)[C@H](OC(C)=O)[C@@H]1C

# output
1: 0.004; 2: 0.03; 3: 0.008; 4: 0.008; 5: 0.06
